biological target: CIB1 and αIIb interaction (CIB1-GST : F-αIIb peptide) (Homo sapiens); construct: made in house; host or cells: BL-21 plus RIL cells (E. coli); experiment: FP assay, 1536-well qHTS format (primary and confirmatory screen); assay type: binding; settings: qHTS primary screen hits, Table S2; negative sign = inhibitory curve
Sequence (Q99828 whole entry): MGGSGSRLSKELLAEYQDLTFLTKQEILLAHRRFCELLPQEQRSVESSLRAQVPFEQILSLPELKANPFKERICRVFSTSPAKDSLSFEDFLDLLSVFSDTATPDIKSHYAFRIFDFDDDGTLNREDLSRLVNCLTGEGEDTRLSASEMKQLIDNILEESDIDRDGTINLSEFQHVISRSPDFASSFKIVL
READOUT LABEL: Curve Class
Answer with the value's number alone.

Task: Quick one: Curve Class of O=C(O)C(F)(F)F.O=C1c2ccccc2NC(c2ccc(-c3ccc(C(F)(F)F)cc3)o2)N1O (centres unmarked) ?
Output: -2.4

Task: Any idea what its Curve Class is? The compound is O=C1c2ccccc2C(=O)c2c(NCCc3ccc(O)cc3)ccc(NCCc3ccc(O)cc3)c21
Output: -2.2

Task: Sample O=C(O)C(F)(F)F.O=C1Nc2ccccc2/C1=N/NC(=S)Nc1ccc(Oc2ccccc2)cc1 — what was its Curve Class?
Output: -1.4

Task: For CC(=O)O.Cc1ccc(OCCn2c(CCNC(=O)c3ccc(N)cc3)nc3ccccc32)cc1 , what is its reported Curve Class?
Output: -1.4

Task: Request the reported Curve Class associated with CCC(=O)NC(c1cccs1)c1ccc2cccnc2c1O (centres unmarked)
Output: -2.4

Task: Which Curve Class is reported for this compound? Cc1ccc(S(=O)(=O)Nc2cnccc2C(=O)Nc2cccc3ccccc23)cc1.O=C(O)C(F)(F)F
Output: -2.4

Task: Sample O=C(CCCN1CCC(n2c(=O)[nH]c3ccccc32)CC1)c1ccc(F)cc1 — what was its Curve Class?
Output: -2.4

Task: Entry O=C(O)C1=CC(=C(c2ccc(O)c(C(=O)O)c2)c2ccc(O)c(C(=O)O)c2)C=CC1=O has what Curve Class?
Output: -1.2

Data credit: paper PMC11249646
